Test system: 253994-281-T-J1-PDC KRAS-mutant spheroids with HUVEC/MSC, viability
Assay: Anticancer human tumor 253994-281-T-J1-PDC patient-derived colorectal carcinoma cell line growth inhibition [KRAS2]
Conditions: curve of first compound; second compound 0.316 µM
readout: IC50 (µM)
Return type: number; implicit unit µM.

Would you please look over these solved cases?
* COc1cc2nccc(Oc3ccc(NC(=O)C4(C(=O)Nc5ccc(F)cc5)CC4)cc3)c2cc1OC + CNCc1ccccc1-c1csc(C(C)Nc2nc(C)nc3cc(OC)c(OC)cc23)c1 | 5.3
* CC(=O)Nc1cccc(-n2c(=O)n(C3CC3)c(=O)c3c(Nc4ccc(I)cc4F)n(C)c(=O)c(C)c32)c1 + C=CC(=O)N1CCN(c2nc(OCC3CCCN3C)nc3c2CCN(c2cccc4cccc(C)c24)C3)CC1CC#N | 0.00066
* Cn1nccc1Nc1nccc(-c2cc3c(s2)C(C)(C)N(CCN2CCOCC2)C3=O)n1 + C=CC(=O)N1CCN(c2nc(=O)n(-c3c(C)ccnc3C(C)C)c3nc(-c4c(O)cccc4F)c(F)cc23)C(C)C1 | 3.04
* CCN1CCN(Cc2ccc(Nc3ncc(F)c(-c4cc(F)c5nc(C)n(C(C)C)c5c4)n3)nc2)CC1 + CNCc1ccccc1-c1csc(C(C)Nc2nc(C)nc3cc(OC)c(OC)cc23)c1 | 0.53
* CC1COCCN1c1cc(-c2ccnn2C)c2ccnc(-c3ccn[nH]3)c2n1 (stereo unspecified) + COc1cc2nc(C)nc(NC(C)c3cc(N)cc(C(F)(F)F)c3)c2cc1OC1CCOC1 | 0.169

Look up IC50 of CC1COCCN1c1cc(-c2ccnn2C)c2ccnc(-c3ccn[nH]3)c2n1 (stereo unspecified) + CC1OCC2(CCN(c3cnc(Sc4ccnc(N)c4Cl)c(N)n3)CC2)C1N and report it.
0.141

###

Test system: 253994-281-T-J1-PDC KRAS-mutant spheroids with HUVEC/MSC, viability
Assay: Anticancer human tumor 253994-281-T-J1-PDC cell line growth inhibition [KRAS2];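 note: spheroids exposed to agents for seven days before readout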;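 for viability, T/C: percent of DMSO vehicle control viability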
Conditions: second compound 0.1 µM; first compound 0.1 µM; stronger effect = lower value
readout: viability, T/C (%)
Unit % implied. Number only.

* Cn1ncnc1[C@H]1c2n[nH]c(=O)c3cc(F)cc(c23)N[C@@H]1c1ccc(F)cc1 + CNCc1ccccc1-c1csc(C(C)Nc2nc(C)nc3cc(OC)c(OC)cc23)c1 | 99.8

Report measured viability, T/C; entry is CC(=O)OC12COC1CC(O)C1(C)C(=O)C(O)C3=C(C)C(OC(=O)C(O)C(NC(=O)OC(C)(C)C)c4ccccc4)CC(O)(C(OC(=O)c4ccccc4)C21)C3(C)C (stereo not given) + CNCc1ccccc1-c1csc(C(C)Nc2nc(C)nc3cc(OC)c(OC)cc23)c1
26.6

Complete the entry with viability, T/C for COc1cc2nccc(Oc3ccc(NC(=O)C4(C(=O)Nc5ccc(F)cc5)CC4)cc3)c2cc1OC + C=CC(=O)N1CCN(c2nc(OCC3CCCN3C)nc3c2CCN(c2cccc4cccc(C)c24)C3)CC1CC#N
101

Retrieve viability, T/C measured for COc1cc(Nc2ncc3c(n2)-c2ccc(Cl)cc2C(c2c(F)cccc2OC)=NC3)ccc1C(=O)O + CNCc1ccccc1-c1csc(C(C)Nc2nc(C)nc3cc(OC)c(OC)cc23)c1 and print it.
28.8

Supply recorded viability, T/C for Cn1nccc1Nc1nccc(-c2cc3c(s2)C(C)(C)N(CCN2CCOCC2)C3=O)n1 + C=CC(=O)N1CCN(c2nc(=O)n(-c3c(C)ccnc3C(C)C)c3nc(-c4c(O)cccc4F)c(F)cc23)C(C)C1 here.
105

Recorded values, source PubChem BioAssay AID1963874.
